biological target: SIK2 (Homo sapiens, UniProt Q9H0K1); assay: SIK2 Enzymatic Assay High Version 2 (High ATP); assay type: biochemical; conditions: enzyme 6 nM, 6 mM ATP and 400 μM HDAC5tide (each 2× final concentration); 30 minutes pre-incubation, 2 hours; ADP-Glo Max luminescence; read-out: SIK2 high ATP IC50 (μM) (Test Example 2)
Sequence (Q9H0K1 whole entry, species assumed): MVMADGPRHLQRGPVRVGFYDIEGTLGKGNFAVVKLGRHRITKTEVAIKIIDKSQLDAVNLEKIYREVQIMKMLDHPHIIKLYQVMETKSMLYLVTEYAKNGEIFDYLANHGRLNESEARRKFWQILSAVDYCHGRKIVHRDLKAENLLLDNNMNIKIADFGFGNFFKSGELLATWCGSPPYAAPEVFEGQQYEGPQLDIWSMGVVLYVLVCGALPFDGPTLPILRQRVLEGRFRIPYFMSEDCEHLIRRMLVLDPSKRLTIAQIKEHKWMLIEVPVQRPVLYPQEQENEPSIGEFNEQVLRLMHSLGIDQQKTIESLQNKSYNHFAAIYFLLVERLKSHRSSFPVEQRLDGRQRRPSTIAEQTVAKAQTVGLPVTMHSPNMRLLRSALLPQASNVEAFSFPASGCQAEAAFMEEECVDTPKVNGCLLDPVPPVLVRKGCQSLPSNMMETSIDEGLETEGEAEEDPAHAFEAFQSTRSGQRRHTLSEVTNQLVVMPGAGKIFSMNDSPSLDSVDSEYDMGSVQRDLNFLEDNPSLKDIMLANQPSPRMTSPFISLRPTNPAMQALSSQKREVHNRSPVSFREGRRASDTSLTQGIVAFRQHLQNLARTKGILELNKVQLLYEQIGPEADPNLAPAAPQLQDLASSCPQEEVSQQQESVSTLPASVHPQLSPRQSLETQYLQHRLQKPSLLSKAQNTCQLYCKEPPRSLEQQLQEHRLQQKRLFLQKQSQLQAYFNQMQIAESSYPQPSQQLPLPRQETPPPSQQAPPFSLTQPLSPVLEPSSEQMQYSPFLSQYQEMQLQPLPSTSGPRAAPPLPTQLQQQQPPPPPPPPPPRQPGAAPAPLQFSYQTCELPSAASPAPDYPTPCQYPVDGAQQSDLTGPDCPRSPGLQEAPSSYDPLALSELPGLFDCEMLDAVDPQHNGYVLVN
METRIC_NAME: IC50

Example cases with answers are listed next.
CNc1nc(C)cc(Nc2cc3cc(-c4cc(C)ncc4OCC(C)(C)C#N)ccn3n2)n1 [Example 309]; < 0.000847 µM
Cc1cc(-c2ccn3nc(NC(=O)C4CC4)cc3c2)c(OC[C@@H](N)C(F)(F)F)cn1 [Example 570]; 0.0943 µM
Cc1cc(-c2ccn3nc(Nc4cc(C)nc(C)n4)cc3c2)c(OCC2(O)CCC2)cn1 [Example 217]; 0.0279 µM
Cc1cc(-c2ccn3nc(Nc4cc(C)nc(C)n4)cc3c2)c(OC[C@]2(C)CCOC2)cn1 (single isomer, unassigned) [Example 535]; 0.0107 µM
CNc1nc(C)cc(Nc2cc3cc(-c4cc(OC(F)F)ncc4OCC(C)(C)C#N)ccn3n2)n1 [Example 676]; 0.108 µM

Tell us which IC50 value is on record for Cc1cc(-c2ccn3nc(Nc4ccc5cc[nH]c5n4)cc3c2)c(OCC(C)(C)C#N)cn1 [Example 307] 0.00132 µM

Tell us which IC50 value is on record for CC#Cc1cc(-c2ccn3nc(NC(=O)C4CC4)cc3c2)c(O[C@H]2CCNC2)cn1 [Example 280] 0.0032 µM

----------
target: SIK2 (Homo sapiens, UniProt Q9H0K1); assay: SIK2 Enzymatic Assay High Version 2 (High ATP); assay type: biochemical
// NB: equality with 100 nM counts as no; only IC50 strictly below is yes

Examples from the recorded data:
CNC1(COc2cnc(C)cc2-c2ccn3nc(NC(=O)C4CC4)cc3c2)CCC1 [Example 156]; yes
N#Cc1cc(-c2ccn3nc(NC(=O)C4CC4)cc3c2)c(O[C@@H]2C[C@H]3C[C@@H]2CN3)cn1 [Example 24]; no
N#Cc1cc(-c2ccn3nc(NC(=O)C4CC4)cc3c2)c(OCC2(O)CCC2)cn1 [Example 41]; yes
N#Cc1cc(-c2ccn3nc(NC(=O)C4CC4)cc3c2)c(O[C@H]2CCN(C3CC3)C2)cn1 [Example 7]; yes
Cc1cc(-c2ccn3nc(Nc4ccc(C(=O)O)cn4)cc3c2)c(O[C@H]2C[C@H]3COC[C@@H](C2)N3)cn1 [Example 370]; yes
N#Cc1cc(-c2ccn3nc(NC(=O)C4CC4)cc3c2)c(OC[C@H]2C[C@@H](Nc3ccccn3)C2)cn1 [Example 176]; yes

Now let's try a different one.
Does CN1CCC[C@H](COc2cnc(C#N)cc2-c2ccn3nc(NC(=O)C4CC4)cc3c2)C1 [Example 38] have IC50 strictly under 100 nM? no

----------
Collected IC50 values appear next to each entry.
biological target: SIK2 (Homo sapiens, UniProt Q9H0K1); test: SIK2 Enzymatic Assay Version 1 (ADP Glo); type: biochemical; conditions: enzyme 0.6 nM, 160 μM ATP and 140 μM HDAC5tide (each 2× final concentration); 30 minutes pre-incubation, 4 hours; ADPGlo luminescence; read-out: SIK2 ADP Glo IC50 (μM) (Test Example 1)
Just the number in µM, nothing appended.

Example cases with answers are listed next.
CN1[C@@H]2CC[C@H]1C[C@H](COc1cnc(C#N)cc1-c1ccn3nc(NC(=O)C4CC4)cc3c1)C2 [Example 27]; 0.00474
COc1cccnc1-c1ccn2nc(NC(=O)C3CC3)cc2c1 [Example 750]; 0.45
N#Cc1cc(-c2ccn3nc(NC(=O)C4CC4)cc3c2)c(OCC2CCNCC2)cn1 [Example 43]; 0.000938

Please turn your attention to the following entry.
Tell us which IC50 value is on record for CC#Cc1cc(-c2ccn3nc(NC(=O)C4CC4)cc3c2)c(O[C@H]2CC[C@H](O)CC2)cn1 [Example 185] 0.000366
